All values here come from ChEMBL document CHEMBL1201862.

System: MDA-MB-435
Experiment: NCI tumour cell line growth inhibition, 48 h
Active and inactive are the calls of the source. No stated cut-off is given here; in the data, active = GI50 up to about 1.1 µM and inactive = higher.
Classes used: y for active, n for inactive

molecule=Cc1ccc2c(c1)C(=O)c1[nH]c3ccc(F)cc3c1CO2 measured_target=MDA-MB-435 label_class=n
molecule=COc1ccc(-c2c(C#N)c(-c3ccc(C)cc3)n(NS(=O)(=O)c3ccccc3)c(=O)c2C#N)cc1 measured_target=MDA-MB-435 label_class=n
molecule="COc1cc(C(C[N+](=O)[O-])SC(C)=O)ccc1OCc1ccccc1 (configuration not stated)" measured_target=MDA-MB-435 label_class=n
molecule="NC(Cc1ccc(O)cn1)C(=O)O (configuration not stated)" measured_target=MDA-MB-435 label_class=n
molecule=CCCCn1c2c(n(CCCC)c1=[Se])-c1c(n(CCCC)c(=[Se])n1CCCC)S[Se][Se]S2 measured_target=MDA-MB-435 label_class=n
molecule=CC(C)NC(=O)OCc1c(COC(=O)NC(C)C)c(-c2ccc[n+](COC(=O)C(C)(C)C)c2)n2c1CCC2 measured_target=MDA-MB-435 label_class=n
molecule=CCNc1ccc2c(c1)C(=O)N(OS(C)(=O)=O)C2=O measured_target=MDA-MB-435 label_class=n
molecule="CS(=O)(=O)N1CC(CCl)c2ccc([N+](=O)[O-])cc21 (configuration not stated)" measured_target=MDA-MB-435 label_class=n
molecule="CC1(C)[C@@H]2C[C@H]1C(Cc1ccc(C[C@H]3c4cc(-c5ccccn5)ncc4[C@H]4C[C@@H]3C4(C)C)cc1)c1cc(-c3ccccn3)ncc12 (some centres not stated)" measured_target=MDA-MB-435 label_class=n
molecule=COC1=C2C[C@@H](C)C[C@@H](OC)[C@@H](O)[C@H](C)/C=C(\C)[C@@H](OC(N)=O)[C@H](OC)/C=C\C=C(/C)C(=O)NC(=CC1=O)C2=O measured_target=MDA-MB-435 label_class=y
molecule=C[C@H]1C[C@H]2[C@@H]3C(C)(C)O[C@]4(O)C(=O)[C@]5(O)[C@@H](C)CC[C@H]1[C@]25C(=O)[C@]34C measured_target=MDA-MB-435 label_class=n
molecule="C[C@@H](CC(O)C(O)C(C)(C)O)C1CCC23CC12CCC1[C@@]2(C)CCC(=O)C(C)(C)C2CC(OC2OC(CO)C(O)C(O)C2O)[C@]13C (some centres not stated)" measured_target=MDA-MB-435 label_class=n
molecule="CC1(C)C2CCC1(C)C(NC(=O)CCN1CCOCC1)C2 (configuration not stated)" measured_target=MDA-MB-435 label_class=n
molecule=Cc1cccc(/C=C2\CCCCCC2=O)c1 measured_target=MDA-MB-435 label_class=n
molecule=O=C1c2cc(Cc3ccccc3)c(=O)c(Cc3ccccc3)cc2C(=O)c2cc(Cc3ccccc3)c(=O)c(Cc3ccccc3)cc21 measured_target=MDA-MB-435 label_class=n
molecule="COC(=O)[C@@]12C(=O)C(C)C(=O)[C@]1(C)C(C)=C[C@H]1[C@]3(C=O)CC[C@H](OC(C)=O)C(C)(C)[C@H]3CC[C@@]12C (some centres not stated)" measured_target=MDA-MB-435 label_class=n
molecule=Cc1ccc(/C=N/n2c(-c3ccc(C)cc3)n[nH]c2=O)cc1 measured_target=MDA-MB-435 label_class=n

###

Test system: SF-295
Experiment: NCI tumour cell line growth inhibition, 48 h
Activity calls are given as the source filed them. Cut-off read from the data, not from the text of the source: active = GI50 up to about 1.1 µM and inactive = higher.
Classes used: y = active, n = inactive

molecule="CS(=O)(=O)N1CC(CCl)c2ccc([N+](=O)[O-])cc21 (stereo not given)" label_class=n
molecule=CNc1ccc(-c2nc3cc(C)ccc3o2)cc1 label_class=n
molecule=CCOC(=O)NC(=O)c1cn(CCCCCCCCCCC(=O)N2CCN(CCn3cc(C(=O)NC(=O)OCC)c(=O)[nH]c3=O)CC2)c(=O)[nH]c1=O label_class=n
molecule=Cn1c(=O)c2[nH]c(Nc3cccc(Cl)c3)nc2n(C)c1=O label_class=n
molecule="CCCCCCCCCCCCCOCCOCCOCCCCC(O)CCCCCCCCCC1=C[C@H](C)OC1=O (stereo not given in full)" label_class=n
molecule=CC(C)CNC(=O)Cn1c(-c2ccccc2)cc2ccccc21 label_class=n
molecule=CCc1nc(N)nc(N)c1-c1ccc(NC)c([N+](=O)[O-])c1 label_class=y
molecule=NCCCNC(=O)c1csc(NC(=O)c2csc(NC(=O)CCCN)n2)n1 label_class=n
molecule="CC(=O)NC1=C(C)C(=O)c2c(nc3n2CCC3O)C1=N (stereo not given)" label_class=n
molecule=CN(C)c1ccc2nc(CC(O)(C(F)(F)F)C(F)(F)F)ccc2c1 label_class=n
